System: MDA-MB-231 cells
Assay: Cell viability MTT assay, MDA-MB-231
Assay type: cell-based
Conditions: Homo sapiens, hypoxia (0.5% O2, 5% CO2 and 94.5% N2), read-out: Cell Viability (%) MDA-MB-231 Hypoxia
ASSAY ENDPOINT: viability at 100 µM (%)
Give just the numeric value; % need not be written.

As a guide, the following entries are already answered.
> print(dat)
                                   compound   subject.of.test  units  obs.value
1  N[C@@H]1[C@@H](O)[C@H](O)[C@@H](CO)O[C@H]1n1cc(COc2ccc3ccc(=O)oc3c2)nn1 [Compound 10d]  MDA-MB-231 cells      %       38.9
2  O=c1ccc2ccc(OCc3cn([C@@H]4O[C@H](CO)[C@@H](O)[C@H](O)[C@@H]4O)nn3)cc2o1 [Compound 10c]  MDA-MB-231 cells      %       38.3
3  CC(=O)Nc1nnc(S(N)(=O)=O)s1 [AAZ, acetazolamide, reference compound]  MDA-MB-231 cells      %       80.3

Prompt: For the compound shown here, Cc1cc(=O)oc2cc(OCc3cn([C@H]4O[C@@H](C)[C@H](O)[C@@H](O)[C@H]4O)nn3)ccc12 [Compound 10o] , give the reported viability at 100 µM.
Completion: 38.7

Prompt: For the compound shown here, Cc1cc(=O)oc2cc(OCc3cn([C@@H]4OC[C@H](O)[C@H](O)[C@H]4O)nn3)ccc12 [Compound 10n] , give the reported viability at 100 µM.
Completion: 38.5

Prompt: For the compound shown here, Cc1cc(=O)oc2cc(OCc3cn([C@@H]4O[C@H](CO)[C@@H](O)[C@H](O)[C@H]4N)nn3)ccc12 [Compound 10l] , give the reported viability at 100 µM.
Completion: 38.5

Prompt: For the compound shown here, Cc1cc(=O)oc2cc(OCc3cn([C@@H]4OC[C@@H](O)[C@H](O)[C@H]4O)nn3)ccc12 [Compound 10m] , give the reported viability at 100 µM.
Completion: 39.8

Prompt: For the compound shown here, C[C@@H]1O[C@H](n2cc(COc3ccc4ccc(=O)oc4c3)nn2)[C@H](O)[C@H](O)[C@H]1O [Compound 10g] , give the reported viability at 100 µM.
Completion: 36.1

----------
ASSAY ENDPOINT: melting point

Prompt: For the compound shown here, Cc1cc(=O)oc2cc(OCc3cn([C@@H]4OC[C@H](O)[C@H](O)[C@H]4O)nn3)ccc12 [Compound 10n] , give the reported melting point.
Completion: 129.3 to 132.5 °C

Prompt: For the compound shown here, Cc1cc(=O)oc2cc(OCc3cn([C@@H]4O[C@H](CO)[C@@H](O)[C@H](O)[C@H]4O)nn3)ccc12 [Compound 10i] , give the reported melting point.
Completion: 127.9 to 130.2 °C

Prompt: For the compound shown here, N[C@@H]1[C@@H](O)[C@H](O)[C@@H](CO)O[C@H]1n1cc(COc2ccc3ccc(=O)oc3c2)nn1 [Compound 10d] , give the reported melting point.
Completion: 131.3 to 134.2 °C

Prompt: For the compound shown here, O=c1ccc2ccc(OCc3cn([C@@H]4OC[C@@H](O)[C@H](O)[C@H]4O)nn3)cc2o1 [Compound 10e] , give the reported melting point.
Completion: 128.4 to 130.6 °C

Prompt: For the compound shown here, Cc1cc(=O)oc2cc(OCc3cn([C@@H]4O[C@H](CO)[C@@H](O)[C@H](O)[C@@H]4O)nn3)ccc12 [Compound 10k] , give the reported melting point.
Completion: 121.5 to 122.6 °C

----------
Attribute: Selectivity Ratio hCA II/hCA IX
Target: hCA IX (Homo sapiens, UniProt Q16790)
Construct: purchased
Assay: CA inhibition by the esterase assay, hCA IX
Type: biochemical
Settings: ratio of IC50 values
Please reply with the number alone, leaving off any unit.

As a guide, the following entries are already answered.
> print(dat)
                                   compound  obs.value
1  O=c1ccc2ccc(OCc3cn([C@@H]4O[C@H](CO)[C@@H](O)[C@H](O)[C@@H]4O)nn3)cc2o1 [Compound 10c]       1600
2  O=c1ccc2ccc(OCc3cn([C@@H]4O[C@H](CO)[C@@H](O)[C@H]4O)nn3)cc2o1 [Compound 10h]        144
3  Cc1cc(=O)oc2cc(OCc3cn([C@@H]4O[C@H](CO)[C@H](O)[C@H](O)[C@H]4O)nn3)ccc12 [Compound 10j]        164

Please find the next compound below.
Prompt: For the compound shown here, O=c1ccc2ccc(OCc3cn([C@@H]4OC[C@H](O)[C@H](O)[C@H]4O)nn3)cc2o1 [Compound 10f] , give the reported Selectivity Ratio hCA II/hCA IX.
Completion: 755

----------
ASSAY ENDPOINT: melting point

As a guide, the following entries are already answered.
> print(dat)
                                   molecule  assay.endpoint          obs.value
1  O=c1ccc2ccc(OCc3cn([C@@H]4O[C@H](CO)[C@@H](O)[C@H]4O)nn3)cc2o1 [Compound 10h]   melting point  131.2 to 133.6 °C
2  Cc1cc(=O)oc2cc(OCc3cn([C@H]4O[C@@H](C)[C@H](O)[C@@H](O)[C@H]4O)nn3)ccc12 [Compound 10o]   melting point  125.5 to 127.7 °C
3  Cc1cc(=O)oc2cc(OCc3cn([C@@H]4O[C@H](CO)[C@@H](O)[C@H](O)[C@H]4N)nn3)ccc12 [Compound 10l]   melting point  126.2 to 128.4 °C

Please find the next molecule below.
Prompt: For the molecule shown here, O=c1ccc2ccc(OCc3cn([C@@H]4OC[C@H](O)[C@H](O)[C@H]4O)nn3)cc2o1 [Compound 10f] , give the reported melting point.
Completion: 133.1 to 135.1 °C

----------
Attribute: viability at 100 µM
Test system: MDA-MB-231 cells
Assay: Cell viability MTT assay, MDA-MB-231
Assay type: cell-based
Conditions: Homo sapiens, normoxia, read-out: Cell Viability (%) MDA-MB-231 Normoxia
Method: In the present study, the potential cytotoxicity of compounds 10a–10p was evaluated in vitro by MTT assay. […] So, half of each cell line were subjected to hypoxic conditions (0.5% O2, 5% CO2 and 94.5% N2) for inducing the expression of CA IX and the other half were incubated under normal conditions (normoxia). Subsequently, all synthesized derivatives were screened at a concentration of 100 μM to test their cytotoxicity in mentioned above cells. […]
Give just the numeric value; % need not be written.

As a guide, the following entries are already answered.
> print(dat)
                                   compound  units  obs.value
1  Cc1cc(=O)oc2cc(OCc3cn([C@@H]4O[C@H](CO)[C@H](O)[C@H](O)[C@H]4O)nn3)ccc12 [Compound 10j]      %       64.7
2  O=c1ccc2ccc(OCc3cn([C@@H]4O[C@H](CO)[C@H](O)[C@H](O)[C@H]4O)nn3)cc2o1 [Compound 10b]      %       61.4
3  Cc1cc(=O)oc2cc(OCc3cn([C@@H]4O[C@H](CO)[C@@H](O)[C@H]4O)nn3)ccc12 [Compound 10p]      %       73.1
4  O=c1ccc2ccc(OCc3cn([C@@H]4OC[C@@H](O)[C@H](O)[C@H]4O)nn3)cc2o1 [Compound 10e]      %       58.2
5  Cc1cc(=O)oc2cc(OCc3cn([C@@H]4O[C@H](CO)[C@@H](O)[C@H](O)[C@H]4N)nn3)ccc12 [Compound 10l]      %       65.1

Prompt: For the compound shown here, Cc1cc(=O)oc2cc(OCc3cn([C@@H]4O[C@H](CO)[C@@H](O)[C@H](O)[C@H]4O)nn3)ccc12 [Compound 10i] , give the reported viability at 100 µM.
Completion: 65.2

Prompt: For the compound shown here, Cc1cc(=O)oc2cc(OCc3cn([C@@H]4O[C@H](CO)[C@@H](O)[C@H](O)[C@@H]4O)nn3)ccc12 [Compound 10k] , give the reported viability at 100 µM.
Completion: 61.3

----------
Attribute: CLint scaled at 1 μM
Assay: Metabolic stability in mouse liver microsomes
Conditions: mouse, liver microsomes
Give just the numeric value; mL/min/kg need not be written.

As a guide, the following entries are already answered.
> print(dat)
                                   molecule        assay.endpoint  obs.value
1  Cc1cc(=O)oc2cc(OCc3cn([C@@H]4O[C@H](CO)[C@@H](O)[C@H]4O)nn3)ccc12 [Compound 10p]  CLint scaled at 1 μM       2.98
2  C[C@@H]1O[C@H](n2cc(COc3ccc4ccc(=O)oc4c3)nn2)[C@H](O)[C@H](O)[C@H]1O [Compound 10g]  CLint scaled at 1 μM       3.65
3  Cc1cc(=O)oc2cc(OCc3cn([C@@H]4O[C@H](CO)[C@H](O)[C@H](O)[C@H]4O)nn3)ccc12 [Compound 10j]  CLint scaled at 1 μM        3.5
4  Cc1cc(=O)oc2cc(OCc3cn([C@@H]4OC[C@H](O)[C@H](O)[C@H]4O)nn3)ccc12 [Compound 10n]  CLint scaled at 1 μM       3.56
5  Cc1cc(=O)oc2cc(OCc3cn([C@@H]4O[C@H](CO)[C@@H](O)[C@H](O)[C@H]4N)nn3)ccc12 [Compound 10l]  CLint scaled at 1 μM       3.07

Prompt: For the molecule shown here, Cc1cc(=O)oc2cc(OCc3cn([C@@H]4OC[C@@H](O)[C@H](O)[C@H]4O)nn3)ccc12 [Compound 10m] , give the reported CLint scaled at 1 μM.
Completion: 3.38

Prompt: For the molecule shown here, N[C@@H]1[C@@H](O)[C@H](O)[C@@H](CO)O[C@H]1n1cc(COc2ccc3ccc(=O)oc3c2)nn1 [Compound 10d] , give the reported CLint scaled at 1 μM.
Completion: 4.26

Prompt: For the molecule shown here, O=c1ccc2ccc(OCc3cn([C@@H]4O[C@H](CO)[C@H](O)[C@H](O)[C@H]4O)nn3)cc2o1 [Compound 10b] , give the reported CLint scaled at 1 μM.
Completion: 4.33

Prompt: For the molecule shown here, O=c1ccc2ccc(OCc3cn([C@@H]4OC[C@H](O)[C@H](O)[C@H]4O)nn3)cc2o1 [Compound 10f] , give the reported CLint scaled at 1 μM.
Completion: 3.75

Prompt: For the molecule shown here, O=c1ccc2ccc(OCc3cn([C@@H]4O[C@H](CO)[C@@H](O)[C@H](O)[C@H]4O)nn3)cc2o1 [Compound 10a] , give the reported CLint scaled at 1 μM.
Completion: 4.76

Prompt: For the molecule shown here, Cc1cc(=O)oc2cc(OCc3cn([C@@H]4O[C@H](CO)[C@@H](O)[C@H](O)[C@H]4O)nn3)ccc12 [Compound 10i] , give the reported CLint scaled at 1 μM.
Completion: 3.83

Prompt: For the molecule shown here, Cc1cc(=O)oc2cc(OCc3cn([C@@H]4O[C@H](CO)[C@@H](O)[C@H](O)[C@@H]4O)nn3)ccc12 [Compound 10k] , give the reported CLint scaled at 1 μM.
Completion: 3.25

Prompt: For the molecule shown here, Cc1cc(=O)oc2cc(OCc3cn([C@H]4O[C@@H](C)[C@H](O)[C@@H](O)[C@H]4O)nn3)ccc12 [Compound 10o] , give the reported CLint scaled at 1 μM.
Completion: 3.13

Prompt: For the molecule shown here, O=c1ccc2ccc(OCc3cn([C@@H]4OC[C@@H](O)[C@H](O)[C@H]4O)nn3)cc2o1 [Compound 10e] , give the reported CLint scaled at 1 μM.
Completion: 4.04

Prompt: For the molecule shown here, O=c1ccc2ccc(OCc3cn([C@@H]4O[C@H](CO)[C@@H](O)[C@H](O)[C@@H]4O)nn3)cc2o1 [Compound 10c] , give the reported CLint scaled at 1 μM.
Completion: 4.07

Prompt: For the molecule shown here, O=c1ccc2ccc(OCc3cn([C@@H]4O[C@H](CO)[C@@H](O)[C@H]4O)nn3)cc2o1 [Compound 10h] , give the reported CLint scaled at 1 μM.
Completion: 4.21
